Target: Torpedo AChR αγ subunit combination (Tetronarce californica, UniProt P02710+P02714)
Sequence (P02714 18-506, one chain of several): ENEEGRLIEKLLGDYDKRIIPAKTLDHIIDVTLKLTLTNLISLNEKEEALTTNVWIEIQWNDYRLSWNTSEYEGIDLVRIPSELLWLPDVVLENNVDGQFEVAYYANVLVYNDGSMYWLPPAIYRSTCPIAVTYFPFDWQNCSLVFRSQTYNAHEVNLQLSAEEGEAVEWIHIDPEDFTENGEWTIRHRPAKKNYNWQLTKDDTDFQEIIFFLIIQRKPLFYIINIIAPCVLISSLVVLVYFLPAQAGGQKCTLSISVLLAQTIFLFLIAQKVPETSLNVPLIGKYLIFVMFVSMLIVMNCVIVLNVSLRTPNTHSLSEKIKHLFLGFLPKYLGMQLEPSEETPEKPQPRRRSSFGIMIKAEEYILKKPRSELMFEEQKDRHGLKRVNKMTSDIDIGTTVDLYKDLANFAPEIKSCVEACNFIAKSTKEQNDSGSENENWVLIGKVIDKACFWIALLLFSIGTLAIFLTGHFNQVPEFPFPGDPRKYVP
Experiment: biochemical
pIC50: −log10 of the molar value.
endpoint: pIC50

1) COc1cc2c3cc1Oc1cc(ccc1O)C[C@@H]1c4c(cc(OC)c(O)c4Oc4ccc(cc4)C[C@@H]3N(C)CC2)CC[N+]1(C)C [curare]
~4.70

###

Target: Torpedo AChR αδ subunit combination (Tetronarce californica, UniProt P02710+P02718)
Sequence (P02718 22-522): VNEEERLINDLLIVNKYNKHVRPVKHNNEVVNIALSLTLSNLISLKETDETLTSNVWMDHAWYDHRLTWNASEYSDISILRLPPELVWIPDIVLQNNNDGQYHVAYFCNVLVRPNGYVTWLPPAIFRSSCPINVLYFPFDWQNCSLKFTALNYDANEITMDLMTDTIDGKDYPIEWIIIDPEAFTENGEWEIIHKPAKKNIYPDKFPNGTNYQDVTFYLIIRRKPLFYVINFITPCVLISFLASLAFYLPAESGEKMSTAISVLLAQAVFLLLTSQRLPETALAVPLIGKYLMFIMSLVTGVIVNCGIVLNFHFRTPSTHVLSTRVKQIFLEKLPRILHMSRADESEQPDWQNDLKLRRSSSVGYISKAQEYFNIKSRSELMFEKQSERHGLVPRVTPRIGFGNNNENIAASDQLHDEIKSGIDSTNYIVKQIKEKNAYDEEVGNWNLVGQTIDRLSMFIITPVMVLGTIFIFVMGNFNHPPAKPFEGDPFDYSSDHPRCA
Sequence (P02710 25-461): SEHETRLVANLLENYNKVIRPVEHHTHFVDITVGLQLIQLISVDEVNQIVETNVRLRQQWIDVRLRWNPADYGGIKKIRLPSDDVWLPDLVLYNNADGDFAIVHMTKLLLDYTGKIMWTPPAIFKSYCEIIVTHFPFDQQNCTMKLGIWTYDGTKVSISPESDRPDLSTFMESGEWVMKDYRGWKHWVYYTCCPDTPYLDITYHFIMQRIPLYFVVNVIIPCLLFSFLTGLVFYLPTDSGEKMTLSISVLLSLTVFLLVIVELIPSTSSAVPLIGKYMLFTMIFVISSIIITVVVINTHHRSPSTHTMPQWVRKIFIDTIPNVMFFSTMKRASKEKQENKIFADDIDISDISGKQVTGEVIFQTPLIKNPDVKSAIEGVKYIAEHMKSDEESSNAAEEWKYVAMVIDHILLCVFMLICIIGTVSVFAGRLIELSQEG
Assay: biochemical
pIC50: −log10 of the molar value.
endpoint: pIC50

1) COc1cc2c3cc1Oc1cc(ccc1O)C[C@@H]1c4c(cc(OC)c(O)c4Oc4ccc(cc4)C[C@@H]3N(C)CC2)CC[N+]1(C)C [curare]
3.70
